Entries and their Dmax values follow.
- systemName: CDK4 (Homo sapiens)
- Construct: endogenous in cells
- Sequence (P11802 whole entry): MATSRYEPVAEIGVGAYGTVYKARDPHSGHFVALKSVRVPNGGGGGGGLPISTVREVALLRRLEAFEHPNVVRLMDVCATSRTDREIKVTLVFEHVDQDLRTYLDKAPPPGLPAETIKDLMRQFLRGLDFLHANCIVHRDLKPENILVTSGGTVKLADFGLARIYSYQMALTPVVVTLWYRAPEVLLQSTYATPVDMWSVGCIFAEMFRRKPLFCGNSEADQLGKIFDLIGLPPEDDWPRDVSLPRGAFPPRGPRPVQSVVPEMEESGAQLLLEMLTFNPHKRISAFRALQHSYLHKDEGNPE
- runDescription: CDK4 degradation (DC50, Dmax)
- Assay type: cell-based

- molecule: "CC(=O)c1c(C)c2cnc(Nc3ccc(N4CCN(C(=O)N5CCN(CCC6CCN(c7ccc8c(c7)CN(C7CCC(=O)NC7=O)C8=O)CC6)CC5)CC4)cn3)nc2n(C2CCCC2)c1=O (centres unmarked)"
  Dmax: "> 50%"
- molecule: "CC(=O)c1c(C)c2cnc(Nc3ccc(N4CCN(C(=O)N5CCN(c6ccc7c(c6)CN(C6CCC(=O)NC6=O)C7=O)CC5)CC4)cn3)nc2n(C2CCCC2)c1=O (centres unmarked)"
  Dmax: "> 60%"
- molecule: "Cc1nc2c(F)cc(-c3nc(Nc4ccc(CN5CCN(C6CCN(c7ccc8c(c7)CN(C7CCC(=O)NC7=O)C8=O)CC6)CC5)cn4)ncc3F)cc2n1C(C)C (centres unmarked)"
  Dmax: "> 80%"

INPUT: Report Dmax for CC(=O)c1c(C)c2cnc(Nc3ccc(N4CCN(CCCNc5cccc6c5C(=O)N(C5CCC(=O)NC5=O)C6=O)CC4)cn3)nc2n(C2CCCC2)c1=O (centres unmarked)
OUTPUT: > 80%

INPUT: Report Dmax for CC(=O)c1c(C)c2cnc(Nc3ccc(N4CCN(C(=O)N5CCN(CC6CCN(c7ccc8c(c7)CN(C7CCC(=O)NC7=O)C8=O)CC6)CC5)CC4)cn3)nc2n(C2CCCC2)c1=O (centres unmarked)
OUTPUT: > 50%

FYI, the data here is from patent US20230295118A1.
